Data credit: patent US20190194358A1

Biological target: T1, transferrin (human, UniProt P02787 20-698)
T1 construct: also called TRF; pooled human transferrin (Sigma)
T1 sequence (P02787 20-698 limits assumed): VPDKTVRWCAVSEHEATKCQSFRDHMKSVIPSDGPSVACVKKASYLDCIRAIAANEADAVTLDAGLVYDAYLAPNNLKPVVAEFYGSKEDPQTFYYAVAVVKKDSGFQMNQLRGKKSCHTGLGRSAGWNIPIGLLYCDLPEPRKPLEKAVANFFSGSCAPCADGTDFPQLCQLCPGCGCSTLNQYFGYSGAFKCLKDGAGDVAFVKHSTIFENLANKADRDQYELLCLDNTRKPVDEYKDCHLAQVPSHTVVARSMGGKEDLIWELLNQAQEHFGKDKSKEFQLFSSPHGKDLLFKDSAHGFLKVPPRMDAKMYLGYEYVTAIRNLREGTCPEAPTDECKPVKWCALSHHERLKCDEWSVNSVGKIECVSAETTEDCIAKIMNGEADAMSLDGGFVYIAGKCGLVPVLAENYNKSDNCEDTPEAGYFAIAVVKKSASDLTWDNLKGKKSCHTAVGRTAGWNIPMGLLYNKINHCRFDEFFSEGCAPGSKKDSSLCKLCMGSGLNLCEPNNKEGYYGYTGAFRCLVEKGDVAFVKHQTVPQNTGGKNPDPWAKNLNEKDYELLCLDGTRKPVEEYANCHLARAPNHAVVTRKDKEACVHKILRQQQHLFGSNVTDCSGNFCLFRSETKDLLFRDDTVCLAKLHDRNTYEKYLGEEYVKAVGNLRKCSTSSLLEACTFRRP
Assay: affinity characterisation of Example 29 (SPR; format for the purified peptides not stated)
Kindly state pKd for each of the entries shown.
The scale used: pKd is minus the common logarithm of the concentration in molar units.

In: Reported pKd for AHKVVPQRQIRFAYNRYGSC [TRF26 H12F point-mutant] : what is it?
Out: 5.01

In: Field entry: AHKVVYQRQIRHAYNRYGSC [TRF26 P6Y point-mutant]
Out: 5.07

In: Do the same for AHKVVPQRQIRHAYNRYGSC (20-mer ending GSC; also called TRF26 Lead Peptide) [TRF26] please
Out: 4.07
